B1: LRRC45 (parent)
chain: DLSAANEKNLLLQNQVDELERKFR

variants of: B1; experiment: protein stability index of a GFP-peptide fusion (GPS, HEK-293T) (PSI 1-6); higher = more stable; conditions: c terminus: a fixed tail appended;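 further: lentivirally expressed fusions sorted by FACS into six bins by GFP to DsRed ratio, PSI derived from sequencing read proportions per bin multiplied by bin number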
Consider the following variants; for each one, report its protein stability index.
Give bare numbers.

// solved cases for protein stability index follow
# variant.annotation, protein stability index
measured = [
    ("N14W", 3.63),
    ("A5F", 3.79),
    ("Q15C", 3.84),
    ("V16E", 4.72),
    ("E7N", 3.01),
]

Return reported protein stability index values for all items listed beneath this line.
1. K8W
2. E7M
3. Q13P
4. L2M
5. D1W
6. L11Y
7. K22L
8. L10M

A)
1: 3.6; 2: 3.14; 3: 3.8; 4: 4.19; 5: 3.75; 6: 4.2; 7: 3.49; 8: 4.09

Return reported protein stability index values for all items listed beneath this line.
1. D17C
2. D1M

A)
1: 3.24; 2: 4.23
